Test system: HEK-293 cells
Assay: In vitro cytotoxicity, SRB cell viability assay, normal kidney HEK-293
Assay type: cell-based
Conditions: Homo sapiens, HEK293, HEK-293 normal kidney cells, 48 h, mean ± SD, triplicate
Experimental: For Hepatocarcinoma (HepG2), human lung carcinoma (LU-1), human colorectal adenocarcinoma (SW480) and human normal embryonic kidney (HEK-293) cell lines, the culture medium was Dulbecco’s Modified Eagle’s Medium (DMEM) (Hyclone, USA). The medium supplementation included 10% fetal bovine serum (Hyclone), 100 units/ml penicillin, and 100 μg/ml streptomycin at 37 °C in an atmosphere with 5% CO2 and 95% humidity. […]
IC50 by entry:
assay_readout: IC50 (µM)

>>> reported("CCCOc1ccc(/C=C/C(=O)c2ccc(OCCn3cc(CN4C(=O)/C(=C5\\Nc6ccccc6\\C5=N/O)c5ccccc54)nn3)cc2O)cc1 [Compound 6l]")
7.12
>>> reported("O=C(/C=C/c1ccccc1)c1ccc(OCCn2cc(CN3C(=O)/C(=C4\\Nc5ccccc5\\C4=N/O)c4ccccc43)nn2)cc1O [Compound 6a]")
3.21
>>> reported("O=C1/C(=C2\\Nc3ccccc3\\C2=N/O)c2ccccc2N1Cc1cn(CCn2ccnc2)nn1 [Compound 6o]")
5.89
>>> reported("COc1ccccc1/C=C/C(=O)c1ccc(OCCn2cc(CN3C(=O)/C(=C4\\Nc5ccccc5\\C4=N/O)c4ccccc43)nn2)cc1O [Compound 6c]")
1.19
>>> reported("CN(C)CCn1cc(CN2C(=O)/C(=C3\\Nc4ccccc4\\C3=N/O)c3ccccc32)nn1 [Compound 6m]")
11.9
>>> reported("CCOc1ccccc1/C=C/C(=O)c1ccc(OCCn2cc(CN3C(=O)/C(=C4\\Nc5ccccc5\\C4=N/O)c4ccccc43)nn2)cc1O [Compound 6f]")
1.03
>>> reported("O=C1Nc2ccccc2C1=C1Nc2ccccc2C1=NO [Compound 2, indirubin-3′-oxime, reference compound]")
14.2
>>> reported("COc1cccc(/C=C/C(=O)c2ccc(OCCn3cc(CN4C(=O)/C(=C5\\Nc6ccccc6\\C5=N/O)c5ccccc54)nn3)cc2O)c1 [Compound 6d]")
2.01
>>> reported("C#CCN1C(=O)/C(=C2\\Nc3ccccc3\\C2=N/O)c2ccccc21 [Compound 4]")
16.2
>>> reported("CCCOc1ccccc1/C=C/C(=O)c1ccc(OCCn2cc(CN3C(=O)/C(=C4\\Nc5ccccc5\\C4=N/O)c4ccccc43)nn2)cc1O [Compound 6i]")
0.85

* * *

System: HEK-293 cells
Experiment: In vitro cytotoxicity, SRB cell viability assay, normal kidney HEK-293
Format: cell-based
Conditions: Homo sapiens, HEK293, HEK-293 normal kidney cells, 48 h, mean ± SD, triplicate
In this section, each of the molecules is paired with its reported IC50.
assay_readout: IC50 (µM)

>>> reported("Cc1c2ccncc2c(C)c2c1[nH]c1ccccc12 [Ellipticine, reference compound]")
0.32
>>> reported("CCOc1cccc(/C=C/C(=O)c2ccc(OCCn3cc(CN4C(=O)/C(=C5\\Nc6ccccc6\\C5=N/O)c5ccccc54)nn3)cc2O)c1")
1.8
>>> reported("O=C1/C(=C2\\Nc3ccccc3\\C2=N/O)c2ccccc2N1Cc1cn(CCN2CCOCC2)nn1")
7.72
>>> reported("CCOc1ccc(/C=C/C(=O)c2ccc(OCCn3cc(CN4C(=O)/C(=C5\\Nc6ccccc6\\C5=N/O)c5ccccc54)nn3)cc2O)cc1")
9.74
